B1: library; a variant is named by its letters at N, in order (parent)
chain: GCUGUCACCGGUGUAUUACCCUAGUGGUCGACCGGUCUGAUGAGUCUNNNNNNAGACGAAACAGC

Variants of: B1
procedure summary: normalized RNA/DNA level without ligand (relative to sTRSVctl = 100) (log10 (% of sTRSVctl)); ligand: hypoxanthine (xanthine aptamer); higher = less ribozyme self-cleavage, higher mRNA level
condition summary: HEK293T, reporter: mCherry (pCS4076), ligand present: no
Listing of entries alongside the reported normalized RNA/DNA level without ligand (log10).
I'd appreciate a reply containing only the number, no unit.

Q: // query normalized RNA/DNA level without ligand (log10) value for entry "CUACGU"
Ans: 1.9

Q: // query normalized RNA/DNA level without ligand (log10) value for entry "CCGUGU"
Ans: 1.69

Q: // query normalized RNA/DNA level without ligand (log10) value for entry "AACUAG"
Ans: 1.47

Q: // query normalized RNA/DNA level without ligand (log10) value for entry "CUUACU"
Ans: 1.86

Q: // query normalized RNA/DNA level without ligand (log10) value for entry "CAUGAG"
Ans: 1.56

Q: // query normalized RNA/DNA level without ligand (log10) value for entry "UACAAA"
Ans: 1.76

Q: // query normalized RNA/DNA level without ligand (log10) value for entry "AGGAAA"
Ans: 1.56

Q: // query normalized RNA/DNA level without ligand (log10) value for entry "GUGUUG"
Ans: 1.34

Q: // query normalized RNA/DNA level without ligand (log10) value for entry "UAGGGA"
Ans: 1.49

Q: // query normalized RNA/DNA level without ligand (log10) value for entry "GGAGCA"
Ans: 1.78

Q: // query normalized RNA/DNA level without ligand (log10) value for entry "UUACGA"
Ans: 1.89
